- System: nude mice, A549 intrarenal xenograft, tumor weight change
- testDescription: NCI In Vivo Anticancer Drug Screen. Data for tumor model A549 Human Adenocarcinoma of Lung with characteristics of Type II Alveolar Epithelial cells (intrarenal inoculation) in NU/NU BALB/C (nude) mice
- statedConditions: endpoint: mean tumor weight change; dose: 1200.0 mg/kg/injection; schedule: Q04DX003 (ip); vehicle: saline with Tween-80; higher = larger tumour
Inconclusive results are not listed.
Overview of recorded T/C for various molecules

Worked examples, 3 molecules total:
[
  {
    "chemicalString": "Nc1ccn([C@@H](C=O)C[C@@H](C=O)CO)c(=O)n1",
    "target": "nude mice, A549 intrarenal xenograft, tumor weight change",
    "assayMetric": "T/C",
    "result": "26 % of control"
  },
  {
    "chemicalString": "Cc1cc(Br)c2nsnc2c1[N+](=O)[O-]",
    "target": "nude mice, A549 intrarenal xenograft, tumor weight change",
    "assayMetric": "T/C",
    "result": "38 % of control"
  },
  {
    "chemicalString": "NC(=O)c1cc(Cl)nc2nc(Cl)nc(N)c12",
    "target": "nude mice, A549 intrarenal xenograft, tumor weight change",
    "assayMetric": "T/C",
    "result": "93 % of control"
  }
]

Q. Kindly indicate its recorded T/C. Item: CC(C)(C)c1ccc(C(=O)N2CCOC23CCCCC3)cc1
A. 42 % of control

---

- Tested on: nude mice, A549 intrarenal xenograft, tumor weight change
- testDescription: NCI In Vivo Anticancer Drug Screen. Data for tumor model A549 Human Adenocarcinoma of Lung with characteristics of Type II Alveolar Epithelial cells (intrarenal inoculation) in NU/NU BALB/C (nude) mice
- statedConditions: endpoint: mean tumor weight change; dose: 150.0 mg/kg/injection; schedule: Q04DX003 (ip); vehicle: distilled water + Tween-80 + alcohol; higher = larger tumour
- Experimental: The antitumor activity of compounds was measured in mice bearing transplantable tumors. Survival or tumor size were measured and the results are expressed as the measurement made in the treated group (T) divided by the measurement made in the vehicle treated control group (C). The tumor model used in this assay is A549 Human Adenocarcinoma of Lung with characteristics of Type II Alveolar Epithelial cells (intrarenal inoculation) in NU/NU BALB/C (nude) mice
Results filed as inconclusive are left out.
assayMetric: T/C

[
  {
    "chemicalString": "COc1cc2c(cc1OC)-c1c3c(cc4c1[C@@H](C2)N(C)CC4)OCO3",
    "target": "nude mice, A549 intrarenal xenograft, tumor weight change",
    "result": "21 % of control"
  },
  {
    "chemicalString": "Cc1nc(C(Cl)(Cl)Cl)[nH]c(=O)c1SCCO",
    "target": "nude mice, A549 intrarenal xenograft, tumor weight change",
    "result": "31 % of control"
  },
  {
    "chemicalString": "CCOC(=O)c1ccc(NN=NCCF)cc1",
    "target": "nude mice, A549 intrarenal xenograft, tumor weight change",
    "result": "160 % of control"
  }
]

The record that follows has no T/C shown yet.
Q. Kindly indicate its recorded T/C. Item: S=C1CCCCN1
A. 69 % of control

---

- System: nude mice, A549 intrarenal xenograft, tumor weight change
- testDescription: NCI In Vivo Anticancer Drug Screen. Data for tumor model A549 Human Adenocarcinoma of Lung with characteristics of Type II Alveolar Epithelial cells (intrarenal inoculation) in NU/NU BALB/C (nude) mice
- statedConditions: endpoint: mean tumor weight change; dose: 30.0 mg/kg/injection; schedule: Q04DX003 (ip); vehicle: saline with Tween-80; higher = larger tumour
Records with an inconclusive call do not appear.
assayMetric: T/C

Worked examples, 4 compounds total:
[
  {
    "compound": "Cn1c(=S)sc2nc3ccccc3n2c1=S",
    "target": "nude mice, A549 intrarenal xenograft, tumor weight change",
    "T/C": "83 % of control"
  },
  {
    "compound": "CCOC(=O)Nc1cc2c(c(N)n1)N=C(c1ccc3ccccc3c1)CN2",
    "target": "nude mice, A549 intrarenal xenograft, tumor weight change",
    "T/C": "63 % of control"
  },
  {
    "compound": "COc1ccc(N=N/N=c2\\sc3cc(OC)ccc3n2C)cc1",
    "target": "nude mice, A549 intrarenal xenograft, tumor weight change",
    "T/C": "100 % of control"
  },
  {
    "compound": "CCCCN1C(=O)N(c2ccc(OCC)cc2)C2N(CCCC)C1C(C)(C)C2(C)C (stereo not given)",
    "target": "nude mice, A549 intrarenal xenograft, tumor weight change",
    "T/C": "51 % of control"
  }
]

The record that follows has no T/C shown yet.
Q. Fill in: T/C on nude mice, A549 intrarenal xenograft, tumor weight change, entry COc1cccc2c1C(CO)N1C(C#N)C3CC(C(=O)O)C(C1C2)N3C (stereo not given)
A. 59 % of control
